# credit: BindingDB's records for doi:10.1016/s0960-894x(02)00064-1

Target: Toxoplasma gondii purine nucleoside phosphorylase (Toxoplasma gondii)
Assay: Compound was evaluated for its binding affinity against Toxoplasma gondii purine nucleoside phosphorylase of virulent strain RH (value indicates competitive inhibition)
metric_name: Ki (mM)

- compound_smiles: "Cc1nc2c(n1Cc1ccccc1)C(=O)C=CC2=O"
  metric_name: "Ki"
  reported: 1.05
- compound_smiles: "O=c1[nH]cnc2c1cnn2[C@@H]1O[C@H](CO)[C@@H](O)[C@H]1O"
  metric_name: "Ki"
  reported: 2

====

Target: Toxoplasma gondii purine nucleoside phosphorylase (Toxoplasma gondii)
Test: Compound was evaluated for its binding affinity against Toxoplasma gondii purine nucleoside phosphorylase of virulent strain RH (value indicates Non competitive inhibition)
pKi: −log10 of the molar value.
Classify by measured pKi: 1 if it is equal to or exceeds 3, 0 if it is smaller.

- compound: "CCCCn1cnc2c1C(=O)C=CC2=O [1-Butyl-1H-benzoimidazole-4,7-dione]"
  group_label: 0
- compound: "Cn1cnc2c1C(=O)C=CC2=O [1-Methyl-1H-benzoimidazole-4,7-dione]"
  group_label: 0
- compound: "O=C1C=CC(=O)c2c1ncn2Cc1ccccc1F"
  group_label: 0
- compound: "O=C1C=CC(=O)c2[nH]cnc21 [1H-Benzoimidazole-4,7-dione]"
  group_label: 0
- compound: "O=C1C=CC(=O)c2c1ncn2Cc1ccc(F)cc1"
  group_label: 1

====

Molecular target: Toxoplasma gondii purine nucleoside phosphorylase (Toxoplasma gondii)
Assay: Compound was evaluated for its binding affinity against Toxoplasma gondii purine nucleoside phosphorylase of virulent strain RH (value indicates competitive inhibition)

- compound_smiles: "O=c1[nH]cnc2c1cnn2[C@@H]1O[C@H](CO)[C@@H](O)[C@H]1O"
  units_symbol: "mM"
  Ki: 1.8
- compound_smiles: "O=C1C=CC(=O)c2c1nc(Cc1ccccc1)n2Cc1ccccc1"
  units_symbol: "mM"
  Ki: 0.67

====

Target: Toxoplasma gondii purine nucleoside phosphorylase (Toxoplasma gondii)
Test: Compound was evaluated for its binding affinity against Toxoplasma gondii purine nucleoside phosphorylase from cystic strain ME 49 (value indicates competitive inhibition)
pKi: −log10 of the molar value.
pKi values for the molecules below.
metric_name: pKi

- compound_smiles: "Cc1nc2c(n1Cc1ccccc1)C(=O)C=CC2=O"
  reported: 3.52
- compound_smiles: "O=C1C=CC(=O)c2c1nc(Cc1ccccc1)n2Cc1ccccc1"
  reported: 3.46
